Tested on: E. coli ATCC25922
measurementProtocol: Salt, serum, acid and alkaline sensitivity
Format: cell-based
condition: in presence of 4.5 mM KCl (final)
Square brackets hold non-standard residues; d marks the D form. Peptide text beside a SMILES is read from it.
propertyName: MIC, KCl (µM)
Your answer is read as µM, so omit the unit and give the number.

CC[C@H](C)[C@H](NC(=O)CNC(=O)[C@H]1CCCN1C(=O)[C@H](CCCCN)NC(=O)[C@H](Cc1c[nH]c2ccccc12)NC(=O)[C@@H](NC(=O)[C@H](CCCCN)NC(=O)[C@H](CCCCN)NC(=O)[C@@H](N)Cc1c[nH]c2ccccc12)[C@@H](C)CC)C(=O)N[C@@H](CCCCN)C(=O)N[C@@H](CCCCN)C(=O)N[C@@H](Cc1c[nH]c2ccccc12)C(=O)N[C@H](C(=O)N[C@@H](CCCCN)C(=O)O)[C@@H](C)CC [Peptide 2] (H-WKKIWK[dP]GIKKWIK-OH; N-terminus and C-terminus assumed) :: 16

We now examine a further compound.
Look at this compound and give its reported MIC, KCl. CC[C@H](C)[C@H](NC(=O)CNC(=O)[C@H]1CCCN1C(=O)[C@H](CCCCN)NC(=O)[C@H](Cc1c[nH]c2ccccc12)NC(=O)[C@@H](NC(=O)[C@H](CCCCN)NC(=O)[C@H](CCCCN)NC(=O)[C@@H](N)Cc1c[nH]c2ccccc12)[C@@H](C)CC)C(=O)N[C@@H](CCCCN)C(=O)N[C@@H](CCCCN)C(=O)N[C@@H](Cc1c[nH]c2ccccc12)C(=O)N[C@@H](CCCCN)C(=O)N[C@@H](CCCCN)C(=O)O [Peptide 8] (H-WKKIWK[dP]GIKKWKK-OH; N-terminus and C-terminus assumed)
16

---

Listed next: entries and their corresponding MIC, FeCl3.
System: E. coli ATCC25922
measurementProtocol: Salt, serum, acid and alkaline sensitivity
Format: cell-based
condition: in presence of 4μM FeCl3 (final)
Square brackets hold non-standard residues; d marks the D form. Peptide text beside a SMILES is read from it.
# number only, unit µM dropped from output

CC[C@H](C)[C@H](NC(=O)CNC(=O)[C@H]1CCCN1C(=O)[C@H](CCCCN)NC(=O)[C@H](Cc1c[nH]c2ccccc12)NC(=O)[C@@H](NC(=O)[C@H](CCCCN)NC(=O)[C@H](CCCCN)NC(=O)[C@@H](N)Cc1c[nH]c2ccccc12)[C@@H](C)CC)C(=O)N[C@@H](CCCCN)C(=O)N[C@@H](CCCCN)C(=O)N[C@@H](Cc1c[nH]c2ccccc12)C(=O)N[C@H](C(=O)N[C@@H](CCCCN)C(=O)O)[C@@H](C)CC [Peptide 2] (H-WKKIWK[dP]GIKKWIK-OH; N-terminus and C-terminus assumed) :: 16

Find the measured MIC, FeCl3: item CC[C@H](C)[C@H](NC(=O)CNC(=O)[C@H]1CCCN1C(=O)[C@H](CCCCN)NC(=O)[C@H](Cc1c[nH]c2ccccc12)NC(=O)[C@@H](NC(=O)[C@H](CCCCN)NC(=O)[C@@H](NC(=O)[C@@H](N)Cc1c[nH]c2ccccc12)[C@@H](C)CC)[C@@H](C)CC)C(=O)N[C@@H](CCCCN)C(=O)N[C@@H](CCCCN)C(=O)N[C@@H](Cc1c[nH]c2ccccc12)C(=O)N[C@@H](CCCCN)C(=O)N[C@@H](CCCCN)C(=O)O [Peptide 9] (H-WIKIWK[dP]GIKKWKK-OH; N-terminus and C-terminus assumed) , target or system E. coli ATCC25922.
16

Item: CC[C@H](C)[C@H](NC(=O)CNC(=O)[C@H]1CCCN1C(=O)[C@H](CCCCN)NC(=O)[C@H](Cc1c[nH]c2ccccc12)NC(=O)[C@@H](NC(=O)[C@H](CCCCN)NC(=O)[C@H](CCCCN)NC(=O)[C@@H](N)Cc1c[nH]c2ccccc12)[C@@H](C)CC)C(=O)N[C@@H](CCCCN)C(=O)N[C@@H](CCCCN)C(=O)N[C@@H](Cc1c[nH]c2ccccc12)C(=O)N[C@@H](CCCCN)C(=O)N[C@@H](CCCCN)C(=O)O [Peptide 8] (H-WKKIWK[dP]GIKKWKK-OH; N-terminus and C-terminus assumed) Test system: E. coli ATCC25922 Read-out: MIC, FeCl3 Value: ?
16

GET /values?readout=MIC, FeCl3&system=E. coli ATCC25922&item= CC[C@H](C)[C@H](NC(=O)CNC(=O)[C@H]1CCCN1C(=O)[C@H](CCCCN)NC(=O)[C@H](Cc1c[nH]c2ccccc12)NC(=O)[C@@H](NC(=O)[C@H](CCCCN)NC(=O)[C@@H](NC(=O)[C@@H](N)Cc1c[nH]c2ccccc12)[C@@H](C)CC)[C@@H](C)CC)C(=O)N[C@@H](CCCCN)C(=O)N[C@@H](CCCCN)C(=O)N[C@@H](Cc1c[nH]c2ccccc12)C(=O)N[C@H](C(=O)N[C@@H](CCCCN)C(=O)O)[C@@H](C)CC [Peptide 7] (H-WIKIWK[dP]GIKKWIK-OH; N-terminus and C-terminus assumed)
32
